Listed here are compounds together with their documented viability, T/C.
- System: 898857-211-R-J1-PDC complex spheroids, growth % test/control;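 further: spheroids exposed to compound for seven days before readout; 100% = DMSO vehicle control wells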
- protocolDescription: Anticancer human tumor 898857-211-R-J1-PDC patient-derived melanoma cell line growth inhibition [RAS]
- assayConditions: second compound 0.000949 µM; first compound 1 µM; stronger effect = lower value

compound	viability, T/C
Cc1nc(N2CCC3(CC2)COC(C)C3N)c(CO)nc1Sc1ccnc(N)c1Cl (centres undefined) + CCn1c(-c2cccnc2C(C)OC)c2c3cc(ccc31)N1CCOC(CC(NC(=O)C(C(C)C)N(C)C(=O)C3(F)CCN(C(=O)C#CC(C)(C)N(C)C)CC3)C(=O)N3CCCC(N3)C(=O)OCC(C)(C)C2)C1	98.8%
O=C(c1ccc(F)c(F)c1Nc1ccc(I)cc1F)N1CC(O)([C@@H]2CCCCN2)C1 + CCn1c(-c2cccnc2C(C)OC)c2c3cc(ccc31)N1CCOC(CC(NC(=O)C(C(C)C)N(C)C(=O)C3(F)CCN(C(=O)C#CC(C)(C)N(C)C)CC3)C(=O)N3CCCC(N3)C(=O)OCC(C)(C)C2)C1	12%
NC1c2ccccc2OC12CCN(c1cnc3c(N4CCCc5ncccc54)n[nH]c3n1)CC2 (centres undefined) + CCn1c(-c2cccnc2C(C)OC)c2c3cc(ccc31)N1CCOC(CC(NC(=O)C(C(C)C)N(C)C(=O)C3(F)CCN(C(=O)C#CC(C)(C)N(C)C)CC3)C(=O)N3CCCC(N3)C(=O)OCC(C)(C)C2)C1	90.7%
C[C@@H](NC(=O)c1ncnc(N)c1Cl)c1ncc(C(=O)Nc2cc(C(F)(F)F)c(Cl)cn2)s1 + CCn1c(-c2cc(N3CCN(C)CC3)cnc2C(C)OC)c2c3cc(ccc31)-c1csc(n1)CC(NC(=O)C1CC1C)C(=O)N1CCCC(N1)C(=O)OCC(C)(C)C2	59.8%

Data provenance: PubChem BioAssay AID2060882
